quantityMeasured: H2 permeability (Barrer)
Give bare numbers, in Barrer.

Guide cases for H2 permeability, answers given:
*CC(*)Cl (repeat unit)    1.79
*CC(C)C(=O)OCCOC(=O)C(C)C* (repeat unit)    15
*Oc1c(Br)cc(C(c2cc(Br)c(OC(*)=O)c(Br)c2)(C(F)(F)F)C(F)(F)F)cc1Br (repeat unit)    10.6

Please give H2 permeability for each item listed below.
1. *c1ccc(Oc2ccc(N3C(=O)c4ccc(C(c5ccc6c(c5)C(=O)N(*)C6=O)(C(F)(F)F)C(F)(F)F)cc4C3=O)cc2)cc1 (repeat unit)
2. *=CC1CC(C=*)C2C(=O)N(C34CC5CC(CC(C5)C3)C4)C(=O)C12 (repeat unit)

A.
1. 44
2. 12.8
